test_method_notes: Pharmacokinetics in female CD1 mice (oral / intravenous)
Type: in vivo
condition_context: mouse, normalized to 1 mg/kg
Method: Female CD1 mice (N=3) received a single oral (gavage) or a single intravenous (bolus) injection of compound. […] Consecutive blood samples were taken sub-lingually under isofluorane inhalation from animals after 0.083 (IV), 0.25, 0.5, 1, 2, 4, 6 and 24 h and were further processed to obtain plasma. Samples were protein precipitated and analysed by LC/MS/MS.
measurement_type: Cmax ng/mL (normalized to 1 mg/k)

Looking up Cc1nc(N2CCC3(CC2)CO[C@@H](C)[C@H]3N)cc(=O)n1-c1cccc(Cl)c1Cl (single isomer, unassigned) , I see its Cmax ng/mL (normalized to 1 mg/k) listed as 223 ng/mL

Looking up Cc1c(N2CCC3(CC2)Cc2ncccc2[C@H]3N)nc(C)n(-c2cccc(Cl)c2Cl)c1=O (single isomer, unassigned) [Compound 66b] , I see its Cmax ng/mL (normalized to 1 mg/k) listed as 367 ng/mL

Looking up Cc1c(N2CCC3(CC2)Oc2ccccc2[C@H]3N)nc(C)n(-c2cccc(Cl)c2Cl)c1=O (single isomer, unassigned) [Compound 81b] , I see its Cmax ng/mL (normalized to 1 mg/k) listed as 450 ng/mL

Looking up Cc1c(N2CCC3(CC2)CO[C@@H](C)[C@H]3N)nc(C)n(-c2cccc(Cl)c2Cl)c1=O (single isomer, unassigned) [Compound 23b] , I see its Cmax ng/mL (normalized to 1 mg/k) listed as 177 ng/mL

Looking up Cc1nc(N2CCC3(CC2)CO[C@@H](C)[C@H]3N)c(CO)nc1-c1cccc(Cl)c1Cl [RMC-4550, reference compound] , I see its Cmax ng/mL (normalized to 1 mg/k) listed as 85 ng/mL

Looking up Cc1c(N2CCC3(CC2)Cc2ccccc2[C@H]3N)nc(C)n(-c2cccc(Cl)c2Cl)c1=O [Compound 74a] , I see its Cmax ng/mL (normalized to 1 mg/k) listed as 129 ng/mL
